# protocol-text: physchem
# cond: pH 7.4
*1 amine or outer side, *2 acyl side, *3 side chain or, on linkers, in order; H or OH if unused. Where a SMILES comes first, the peptide text is derived from it. Bridges are numbered along the chain shown (N, C = ends). [ ]: non-standard residue; d: D form. The star is where a group is joined. X2 = NCCCC[C@H](N)C(=O)NCCCOCCOCCOCCCN*; Suc = O=C(CCC(=O)[*:2])[*:1]; X3 = CC(=O)NCCCOCCOCCOCCCN*
measured-metric: solubility kinetic (µM)
Just the number in µM, nothing appended.

Here are 2 compounds together with their reported answers.
[[record]]
compound = "CSCC[C@H]1NC(=O)[C@@H](Cc2ccc(O)cc2)NC(=O)[C@H](NC(=O)CCC(=O)NCCCOCCOCCOCCCNC(C)=O)CSSC[C@H](C(=O)N[C@H](Cc2ccc(O)cc2)C(=O)N[C@H](CCC(=O)O)C(N)=O)NC(=O)[C@@H](CC(=O)O)NC(=O)[C@@H](Cc2ccc(O)cc2)NC(=O)[C@@H](Cc2c[nH]c3ccccc23)NC(=O)[C@@H](Cc2ccccc2)NC1=O [Peptide B05, Ac-TTDS-(cymfwydc)-ye-NH2] ({X3-Suc}-[dC][dY][dM][dF][dW][dY][dD][dC][dY][dE]-NH2; disulfide 1-8)"
measured_metric = "solubility kinetic"
test_value = 174

[[record]]
compound = "CC[C@@H](C)[C@@H](NC(=O)[C@@H](CS)NC(C)=O)C(=O)N[C@H](CCSC)C(=O)N[C@H](Cc1ccccc1)C(=O)N[C@H](Cc1c[nH]c2ccccc12)C(=O)N[C@H](Cc1ccc(O)cc1)C(=O)N[C@H](CC(=O)O)C(=O)N[C@H](CCC(=O)O)C(=O)N[C@H](Cc1ccc(O)cc1)C(=O)N[C@H](CCC(=O)O)C(N)=O [Peptide B03, Ac-cimfwydeye-NH2] (Ac-[dC][dI][dM][dF][dW][dY][dD][dE][dY][dE]-NH2)"
measured_metric = "solubility kinetic"
test_value = 114


Consider the record given below.
Recall and state the measured solubility kinetic for CSCC[C@H]1NC(=O)[C@@H](Cc2ccc(O)cc2)NC(=O)[C@H](NC(=O)CCC(=O)NCCCOCCOCCOCCCNC(=O)[C@@H](N)CCCCN)CSSC[C@H](C(=O)N[C@H](Cc2ccc(O)cc2)C(=O)N[C@H](CCC(=O)O)C(N)=O)NC(=O)[C@@H](CC(=O)O)NC(=O)[C@@H](Cc2ccc(O)cc2)NC(=O)[C@@H](Cc2c[nH]c3ccccc23)NC(=O)[C@@H](Cc2ccccc2)NC1=O [Peptide B06, K-TTDS-(cymfwydc)-ye-NH2] ({X2-Suc}-[dC][dY][dM][dF][dW][dY][dD][dC][dY][dE]-NH2; disulfide 1-8) .
48
